Origin of the recorded values: the supplement of paper PMC11208160

For each entry below, report its recombinant barcode read abundance (log10) value.
experiment: recombinant barcode read abundance after kanamycin selection (control-corrected) (log10(CPM+1)); higher = more efficient recombination; sequences stand for … in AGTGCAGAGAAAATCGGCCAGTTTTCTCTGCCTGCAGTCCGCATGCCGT…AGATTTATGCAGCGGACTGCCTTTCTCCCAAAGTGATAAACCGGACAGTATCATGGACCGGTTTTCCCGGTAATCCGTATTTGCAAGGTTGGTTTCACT; site = the 11-nt target;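 note: IS621 recombinase and bridge RNA in Escherichia coli cells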
One number for each entry.

Answered examples (3):
CTCGTGTCTTGGGTTCTAACCTGTTGCAG (site CTCTTGTCTCA) | 0.0182
CTCCAATCTTGGGTTCTAACCTGTTGCCT (site CTCCTATCTAG) | 0.113
ATAGAATCTTGGGTTCTAACCTGTTGCTC (site TGCCTGCCTCT) | 0.204

Lab note: each sequence below needs its recombinant barcode read abundance (log10) filled in.
1. GTGTACCCTTGGGTTCTAACCTGTTGCGA (site GTGTACCCTGC)
2. CGGAGCCCTTGGGTTCTAACCTGTTGCCT (site CAAAGCCCTAG)

1: 0.0937; 2: 0.0117
